# tested_system: Acyl-CoA : cholesterol acyltransferase (ACAT) (Rattus norvegicus)
# Construct: from the mucosal microsome fraction of the small intestine of male, 6-week old Sprague-Dawley rats; from tissue; host or cells: mucosal microsome fraction of the small intestine of male 6-week old Sprague-Dawley rats, fasted for 20 hours
# Sequence (Q7TQM4 whole entry): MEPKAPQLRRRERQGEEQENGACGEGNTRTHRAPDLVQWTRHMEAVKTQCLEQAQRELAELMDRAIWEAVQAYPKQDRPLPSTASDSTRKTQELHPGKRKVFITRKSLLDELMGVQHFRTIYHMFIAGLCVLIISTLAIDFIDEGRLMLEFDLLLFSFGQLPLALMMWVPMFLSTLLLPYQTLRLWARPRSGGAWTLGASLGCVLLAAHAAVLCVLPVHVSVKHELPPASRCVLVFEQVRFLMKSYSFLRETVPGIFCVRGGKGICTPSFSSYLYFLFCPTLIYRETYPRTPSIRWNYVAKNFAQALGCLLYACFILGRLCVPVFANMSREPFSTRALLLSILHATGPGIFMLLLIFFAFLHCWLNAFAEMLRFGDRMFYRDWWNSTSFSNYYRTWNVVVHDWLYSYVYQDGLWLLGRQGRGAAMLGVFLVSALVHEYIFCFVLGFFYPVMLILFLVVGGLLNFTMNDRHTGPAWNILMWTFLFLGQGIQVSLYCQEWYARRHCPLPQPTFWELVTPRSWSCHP
# method_description: Acyl-CoA : cholesterol acyltransferase (ACAT) inhibitory activity: production of labeled cholesterol ester from [1-^14 C] oleoyl-CoA and endogenous cholesterol
# Type: biochemical
# condition_details: 10^-6 M test compound; read-out: ACAT Inhibition Rate
quantity_kind: inhibition at 1 µM (%)

{"compound_string": "CCc1ccc2ncc(NC(=O)Nc3ccc(F)cc3F)c(-c3ccccc3Cl)c2c1", "tested_system": "Acyl-CoA : cholesterol acyltransferase (ACAT) (Rattus norvegicus)", "quantity_kind": "inhibition at 1 µM", "value_unit": "%", "recorded_value": 99.2}
{"compound_string": "COc1ccc(-c2c(NC(=O)Nc3ccc(F)cc3F)cnc3ccc(Cl)cc23)cc1", "tested_system": "Acyl-CoA : cholesterol acyltransferase (ACAT) (Rattus norvegicus)", "quantity_kind": "inhibition at 1 µM", "value_unit": "%", "recorded_value": 92.7}
{"compound_string": "COc1ccccc1-c1c(NC(=O)Nc2ccc(F)cc2F)cnc2ccc(Cl)cc12", "tested_system": "Acyl-CoA : cholesterol acyltransferase (ACAT) (Rattus norvegicus)", "quantity_kind": "inhibition at 1 µM", "value_unit": "%", "recorded_value": 98.2}
{"compound_string": "Cc1ccccc1-c1c(NC(=O)Nc2ccc(F)c([N+](=O)[O-])c2)cnc2ccc(Cl)cc12", "tested_system": "Acyl-CoA : cholesterol acyltransferase (ACAT) (Rattus norvegicus)", "quantity_kind": "inhibition at 1 µM", "value_unit": "%", "recorded_value": 88.5}
{"compound_string": "COc1ccc2ncc(NC(=O)Nc3ccc(F)cc3F)c(-c3ccccc3)c2c1", "tested_system": "Acyl-CoA : cholesterol acyltransferase (ACAT) (Rattus norvegicus)", "quantity_kind": "inhibition at 1 µM", "value_unit": "%", "recorded_value": 85.9}
{"compound_string": "CCCCc1ccc2ncc(NC(=O)Nc3ccc(F)cc3F)c(-c3ccccc3Cl)c2c1", "tested_system": "Acyl-CoA : cholesterol acyltransferase (ACAT) (Rattus norvegicus)", "quantity_kind": "inhibition at 1 µM", "value_unit": "%", "recorded_value": 97}
{"compound_string": "COc1cc(NC(=O)Nc2cnc3c(C)cc(C)cc3c2-c2ccccc2Cl)cc(OC)c1OC", "tested_system": "Acyl-CoA : cholesterol acyltransferase (ACAT) (Rattus norvegicus)", "quantity_kind": "inhibition at 1 µM", "value_unit": "%", "recorded_value": 69.7}
{"compound_string": "CSc1ccccc1-c1c(NC(=O)Nc2ccc(F)cc2F)cnc2ccc(C)cc12", "tested_system": "Acyl-CoA : cholesterol acyltransferase (ACAT) (Rattus norvegicus)", "quantity_kind": "inhibition at 1 µM", "value_unit": "%", "recorded_value": 97.5}
{"compound_string": "O=C(Nc1ccc(F)cc1F)Nc1cnc2ccc(Cl)cc2c1-c1ccc(Cl)cc1", "tested_system": "Acyl-CoA : cholesterol acyltransferase (ACAT) (Rattus norvegicus)", "quantity_kind": "inhibition at 1 µM", "value_unit": "%", "recorded_value": 77}
{"compound_string": "CCc1ccc2ncc(NC(=O)Nc3ccc(F)cc3F)c(-c3ccccc3)c2c1", "tested_system": "Acyl-CoA : cholesterol acyltransferase (ACAT) (Rattus norvegicus)", "quantity_kind": "inhibition at 1 µM", "value_unit": "%", "recorded_value": 90.1}
{"compound_string": "O=C(Nc1ccc(Cl)cc1)Nc1cnc2ccc(Cl)cc2c1-c1ccccc1Cl", "tested_system": "Acyl-CoA : cholesterol acyltransferase (ACAT) (Rattus norvegicus)", "quantity_kind": "inhibition at 1 µM", "value_unit": "%", "recorded_value": 96.8}
{"compound_string": "Cc1ccc2ncc(NC(=O)Nc3ccc(F)cc3F)c(-c3ccccc3)c2c1", "tested_system": "Acyl-CoA : cholesterol acyltransferase (ACAT) (Rattus norvegicus)", "quantity_kind": "inhibition at 1 µM", "value_unit": "%", "recorded_value": 84.5}
{"compound_string": "O=C(Nc1ccc(F)cc1F)Nc1cnc2ccc(Cl)cc2c1-c1ccc(O)c(O)c1", "tested_system": "Acyl-CoA : cholesterol acyltransferase (ACAT) (Rattus norvegicus)", "quantity_kind": "inhibition at 1 µM", "value_unit": "%", "recorded_value": 61.2}
{"compound_string": "O=C(Nc1ccc(F)cc1F)Nc1cnc2ccc(Cl)cc2c1-c1ccccc1Cl", "tested_system": "Acyl-CoA : cholesterol acyltransferase (ACAT) (Rattus norvegicus)", "quantity_kind": "inhibition at 1 µM", "value_unit": "%", "recorded_value": 98}
{"compound_string": "CC(=O)Oc1c(C)cc(NC(=O)Nc2cnc3c(C)cc(C)cc3c2-c2ccccc2Cl)c(C)c1C", "tested_system": "Acyl-CoA : cholesterol acyltransferase (ACAT) (Rattus norvegicus)", "quantity_kind": "inhibition at 1 µM", "value_unit": "%", "recorded_value": 98.2}
{"compound_string": "O=C(Nc1ccc(F)cc1F)Nc1cnc2ccc(C(F)(F)F)cc2c1-c1ccccc1", "tested_system": "Acyl-CoA : cholesterol acyltransferase (ACAT) (Rattus norvegicus)", "quantity_kind": "inhibition at 1 µM", "value_unit": "%", "recorded_value": 90.1}
{"compound_string": "CSc1ccccc1-c1c(NC(=O)Nc2ccc(F)cc2F)cnc2ccc(Cl)cc12", "tested_system": "Acyl-CoA : cholesterol acyltransferase (ACAT) (Rattus norvegicus)", "quantity_kind": "inhibition at 1 µM", "value_unit": "%", "recorded_value": 97.9}
{"compound_string": "Cc1cc(Cl)c2ncc(NC(=O)Nc3ccc(F)cc3F)c(-c3ccccc3Cl)c2c1", "tested_system": "Acyl-CoA : cholesterol acyltransferase (ACAT) (Rattus norvegicus)", "quantity_kind": "inhibition at 1 µM", "value_unit": "%", "recorded_value": 97.6}
{"compound_string": "COc1ccc(-c2c(NC(=O)Nc3ccc(F)cc3F)cnc3ccc(Cl)cc23)c(O)c1OC", "tested_system": "Acyl-CoA : cholesterol acyltransferase (ACAT) (Rattus norvegicus)", "quantity_kind": "inhibition at 1 µM", "value_unit": "%", "recorded_value": 78.2}
{"compound_string": "Cc1ccccc1-c1c(NC(=O)Nc2ccc(F)cc2F)cnc2ccc(Cl)cc12", "tested_system": "Acyl-CoA : cholesterol acyltransferase (ACAT) (Rattus norvegicus)", "quantity_kind": "inhibition at 1 µM", "value_unit": "%", "recorded_value": 97.2}
{"compound_string": "Cc1cc(C)c2ncc(NC(=O)Nc3c(C(C)C)cccc3C(C)C)c(-c3ccccc3Cl)c2c1", "tested_system": "Acyl-CoA : cholesterol acyltransferase (ACAT) (Rattus norvegicus)", "quantity_kind": "inhibition at 1 µM", "value_unit": "%", "recorded_value": 98}
{"compound_string": "O=C(Nc1ccc(F)cc1F)Nc1cnc2ccccc2c1-c1ccccc1Cl", "tested_system": "Acyl-CoA : cholesterol acyltransferase (ACAT) (Rattus norvegicus)", "quantity_kind": "inhibition at 1 µM", "value_unit": "%", "recorded_value": 91.8}
{"compound_string": "Cc1ccc2ncc(NC(=O)Nc3ccc(F)cc3F)c(-c3ccccc3C)c2c1", "tested_system": "Acyl-CoA : cholesterol acyltransferase (ACAT) (Rattus norvegicus)", "quantity_kind": "inhibition at 1 µM", "value_unit": "%", "recorded_value": 96.9}
{"compound_string": "COc1ccc(-c2c(NC(=O)Nc3ccc(F)cc3F)cnc3ccc(Cl)cc23)cc1OC", "tested_system": "Acyl-CoA : cholesterol acyltransferase (ACAT) (Rattus norvegicus)", "quantity_kind": "inhibition at 1 µM", "value_unit": "%", "recorded_value": 95.1}
{"compound_string": "Cc1cc(C)c2ncc(N(Cc3cc(C(C)(C)C)c(O)c(C(C)(C)C)c3)C(=O)Nc3ccc(F)cc3F)c(-c3ccccc3Cl)c2c1", "tested_system": "Acyl-CoA : cholesterol acyltransferase (ACAT) (Rattus norvegicus)", "quantity_kind": "inhibition at 1 µM", "value_unit": "%", "recorded_value": 90.1}
{"compound_string": "Cc1cc(C)c2ncc(NC(=O)Nc3ccc(Cl)cc3)c(-c3ccccc3Cl)c2c1", "tested_system": "Acyl-CoA : cholesterol acyltransferase (ACAT) (Rattus norvegicus)", "quantity_kind": "inhibition at 1 µM", "value_unit": "%", "recorded_value": 97.2}
{"compound_string": "O=C(Nc1ccc(F)cc1F)Nc1cnc2ccc(Cl)cc2c1-c1cccc(Cl)c1", "tested_system": "Acyl-CoA : cholesterol acyltransferase (ACAT) (Rattus norvegicus)", "quantity_kind": "inhibition at 1 µM", "value_unit": "%", "recorded_value": 88.5}
{"compound_string": "O=C(Nc1ccc(F)cc1F)Nc1cnc2ccc(Br)cc2c1-c1ccccc1", "tested_system": "Acyl-CoA : cholesterol acyltransferase (ACAT) (Rattus norvegicus)", "quantity_kind": "inhibition at 1 µM", "value_unit": "%", "recorded_value": 85.5}

From: patent US5254565A
